# TESTED ON: Δ1–312 hOGT (Homo sapiens, UniProt O15294)
# Construct: N-terminally truncated, residues 1-312 removed (printed once as Δ1-313 beside the Ki); part of TPRs plus catalytic domain; recombinant
# Sequence (O15294 323-1041, stated change not applied): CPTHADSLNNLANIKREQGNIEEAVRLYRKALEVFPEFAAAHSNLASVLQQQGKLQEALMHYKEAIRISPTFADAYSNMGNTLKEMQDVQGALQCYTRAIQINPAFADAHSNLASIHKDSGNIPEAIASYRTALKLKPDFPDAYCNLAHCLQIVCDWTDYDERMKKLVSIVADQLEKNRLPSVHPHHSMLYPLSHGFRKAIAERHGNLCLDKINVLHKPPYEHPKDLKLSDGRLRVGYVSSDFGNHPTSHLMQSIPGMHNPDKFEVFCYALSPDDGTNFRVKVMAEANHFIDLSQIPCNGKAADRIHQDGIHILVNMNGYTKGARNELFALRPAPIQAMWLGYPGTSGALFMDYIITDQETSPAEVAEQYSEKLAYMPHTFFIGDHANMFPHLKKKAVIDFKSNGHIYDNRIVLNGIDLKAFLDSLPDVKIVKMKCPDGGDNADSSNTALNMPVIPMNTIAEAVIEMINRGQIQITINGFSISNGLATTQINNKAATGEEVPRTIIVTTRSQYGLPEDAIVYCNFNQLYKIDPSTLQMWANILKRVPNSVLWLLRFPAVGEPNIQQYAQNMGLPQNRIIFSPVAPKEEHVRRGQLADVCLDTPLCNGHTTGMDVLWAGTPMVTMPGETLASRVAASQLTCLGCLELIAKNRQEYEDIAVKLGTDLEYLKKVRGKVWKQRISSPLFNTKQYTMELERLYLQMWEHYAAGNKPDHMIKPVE
# ASSAY EXPLANATION: radiometric transfer assay on RBL2 peptide, three-parameter dose-response fit
READOUT LABEL: pIC50
Units for pIC50: none; it is -log10 of a concentration expressed in mol/L.

Query string: Report its pIC50 with Δ1–312 hOGT (Homo sapiens, UniProt O15294) as the test system: `CC(=O)N[C@@H]1[C@@H](O)[C@H](O)[C@@H](CO)S[C@@H]1OP(=O)(O)OP(=O)(O)OC[C@H]1O[C@@H](n2ccc(=O)[nH]c2=O)[C@H](O)[C@@H]1O`
Result string: 4.61
